# Type: physicochemical
# SETUP_CONDITIONS: method [a]: HPLC/LC-MS on reversed phase at pH 2.7, 0.1% formic acid in water / acetonitrile, linear gradient 10% to 95% acetonitrile
Catalogue of molecules with associated log P

Known results for molecules:
molecule="C#Cc1cnc2ccc(C3=NOC(C)(C(=O)NCc4cn(CCC)nc4C)C3)cc2c1 (centres unmarked)" readout_kind="log P" result=2.39^[a]
molecule="CCOCCCNC(=O)C1(OC)CC(c2ccc3ncc(Br)cc3c2)=NO1 (centres unmarked)" readout_kind="log P" result=2.68^[a]
molecule="C#Cc1cnc2ccc(C3=NOC(C)(C(=O)NCc4ccc(C)o4)C3)cc2c1 (centres unmarked)" readout_kind="log P" result=2.8^[a]

Exercise: Requested field: log P. Item: CCn1cc(CNC(=O)C2(C)CC(c3ccc4ncc(Br)cc4c3)=NO2)cn1 (centres unmarked)
Key: 2.27^[a]

Exercise: Suppose we examine the molecule CC1(C(=O)NCCc2ccc(Cl)cc2)CC(c2ccc3ncc(Br)cc3c2)=NO1 (centres unmarked) ; what log P value has been reported?
Key: 3.68^[a]

Exercise: Name the recorded log P for C#Cc1cnc2ccc(C3=NOC(C)(C(=O)NCc4cccc5ccccc45)C3)cc2c1 (centres unmarked) .
Key: 3.46^[a]

Exercise: # get_value(readout='log P', item= CCOCCCNC(=O)C1(C)CC(c2ccc3ncc(Br)cc3c2)=NO1 (centres unmarked) )
Key: 2.69^[a]
